Item-by-item account of kon
Target: T1, tip-chimeric peptide IhfA5-mIhfB4NTHI (nontypeable Haemophilus influenzae …)
T1 construct: also called IHF(NTHI) tip chimeric peptide; IHFNTHI tip chimeric peptide
T1 peptide: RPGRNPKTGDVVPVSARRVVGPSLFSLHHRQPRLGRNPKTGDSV
Assay: SPR Biacore 3000, HuMab immobilized, peptide as analyte
API: value field is a number in M⁻¹ s⁻¹; no unit string.

See these solved cases before continuing.
humanized anti-tip monoclonal antibody, heavy chain SEQ ID NO: 1 and light chain SEQ ID NO: 9 (antibody, V domains shown, also called H10210 (1F8.F1 Humanized HC1) + L10212 (1F8.F1 Humanized LC3)) VH: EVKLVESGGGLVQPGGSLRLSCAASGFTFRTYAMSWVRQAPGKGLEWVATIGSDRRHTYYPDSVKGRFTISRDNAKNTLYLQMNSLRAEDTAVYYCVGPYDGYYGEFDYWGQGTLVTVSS VL: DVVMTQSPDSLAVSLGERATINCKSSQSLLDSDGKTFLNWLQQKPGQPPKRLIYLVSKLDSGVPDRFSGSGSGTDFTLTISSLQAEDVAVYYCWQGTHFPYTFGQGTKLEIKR: 2500
humanized anti-tip monoclonal antibody, heavy chain SEQ ID NO: 3 and light chain SEQ ID NO: 9 (antibody, V domains shown, also called H10212 (1F8.F1 Humanized HC3) + L10212 (1F8.F1 Humanized LC3)) VH: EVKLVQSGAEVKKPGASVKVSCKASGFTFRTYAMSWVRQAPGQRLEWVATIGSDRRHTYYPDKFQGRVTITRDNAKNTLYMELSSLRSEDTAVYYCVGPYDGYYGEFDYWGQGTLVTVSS VL: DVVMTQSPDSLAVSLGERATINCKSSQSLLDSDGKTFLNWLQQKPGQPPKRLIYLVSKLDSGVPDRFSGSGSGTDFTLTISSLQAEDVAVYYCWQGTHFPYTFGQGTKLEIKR: 9500

Fill in kon for record humanized anti-tip monoclonal antibody, heavy chain SEQ ID NO: 3 and light chain SEQ ID NO: 8 (antibody, V domains shown, also called H10212 (1F8.F1 Humanized HC3) + L10211 (1F8.F1 Humanized LC2)) VH: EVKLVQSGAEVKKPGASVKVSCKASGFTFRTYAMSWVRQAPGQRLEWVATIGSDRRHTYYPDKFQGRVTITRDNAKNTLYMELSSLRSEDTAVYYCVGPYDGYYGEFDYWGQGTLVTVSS VL: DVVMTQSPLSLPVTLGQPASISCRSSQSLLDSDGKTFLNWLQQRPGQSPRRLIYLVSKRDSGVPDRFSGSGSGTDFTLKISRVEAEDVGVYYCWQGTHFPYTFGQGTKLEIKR
95000
